From: the supplement of paper PMC9170038

# System: MS2 coat protein
# TEST: apparent KD of MS2 coat protein; higher = weaker reporter binding
# TEST CONDITIONS: Eterna round: R107; input ligand: tryptophan 2.4 mM
OUTCOME MEASURE: apparent KD of MS2 coat protein (nM)
The answer is to be given in nM; state only the numeric part.

The following sequences have reported results that may help.
CUCCUGUGAGCGGCCGCCACUGGAGGCCUCGCGCGACAUGAGGAUCACCCAUGUUGGCCCGGCCUCAGGACCGGGUUCGCGCGAG [Same State - Tryptophan B Attempt #4 (HarryS)]    10.9
AGUAUCAGUGGAAGGAGCGUCGCGACUGCCACAUGAGGAUCACCCAUGUCGCCUUGAGCGCGACAGGUAGGUCGCCACGGUAGGC [SS-ArgB2]    289

GET apparent KD of MS2 coat protein | system: MS2 coat protein | item: `AACGUGAACGUGGUAUACCCGUGUGCCGAAGGAGCGCCCGAAAGGGCAGGUAGGUCGCGGACGACAUGAGGAUCACCCAUGUUUG`
57.7

GET apparent KD of MS2 coat protein | system: MS2 coat protein | item: UUUCUUUUCUUUCUUUCCUUUCAAACCGAAGGAGCGGGAACAAACCCAGGUAGGUCGCGGUGUGACAUGAGGAUCACCCAUGUGU [Exclusion - Arginine]
58.1

GET apparent KD of MS2 coat protein | system: MS2 coat protein | item: AGAUUACAUGUUUUAAUAAGAUAAACUGAUACCAGUGUAUAUAUUCACCCUUGGCAGCAGCAACAUGAGGAUCACCCAUGUAUUA [JR_SSTheophyA_Sub015]
16.7

GET apparent KD of MS2 coat protein | system: MS2 coat protein | item: ACAUGAGGAUCACCCAUGUAGCGUAGGGAAGGAGCGGAAUAGAGUCCAGGUAGGUCGCCCAUAUGAUGAUCUCACUUAUUAUCGA [#13 Same State - Arginine A]
22.9

GET apparent KD of MS2 coat protein | system: MS2 coat protein | item: UGGAGUAUCAGACAUGAGGAUCACCCAUGUCGAGGACCGGUACGGCCGCCACUCGGCAGUUUGCGUCCUCAGGUACUCCGGGUAA [Edlatearis]
27.7
